The measured values listed here are drawn from patent US11541050B2.

- assay.target: human TLR7 (wild type sequence) (Homo sapiens, UniProt Q9NYK1)
- Construct: expressed in transfected cells; host or cells: HEK293
- Sequence (Q9NYK1 27-1049): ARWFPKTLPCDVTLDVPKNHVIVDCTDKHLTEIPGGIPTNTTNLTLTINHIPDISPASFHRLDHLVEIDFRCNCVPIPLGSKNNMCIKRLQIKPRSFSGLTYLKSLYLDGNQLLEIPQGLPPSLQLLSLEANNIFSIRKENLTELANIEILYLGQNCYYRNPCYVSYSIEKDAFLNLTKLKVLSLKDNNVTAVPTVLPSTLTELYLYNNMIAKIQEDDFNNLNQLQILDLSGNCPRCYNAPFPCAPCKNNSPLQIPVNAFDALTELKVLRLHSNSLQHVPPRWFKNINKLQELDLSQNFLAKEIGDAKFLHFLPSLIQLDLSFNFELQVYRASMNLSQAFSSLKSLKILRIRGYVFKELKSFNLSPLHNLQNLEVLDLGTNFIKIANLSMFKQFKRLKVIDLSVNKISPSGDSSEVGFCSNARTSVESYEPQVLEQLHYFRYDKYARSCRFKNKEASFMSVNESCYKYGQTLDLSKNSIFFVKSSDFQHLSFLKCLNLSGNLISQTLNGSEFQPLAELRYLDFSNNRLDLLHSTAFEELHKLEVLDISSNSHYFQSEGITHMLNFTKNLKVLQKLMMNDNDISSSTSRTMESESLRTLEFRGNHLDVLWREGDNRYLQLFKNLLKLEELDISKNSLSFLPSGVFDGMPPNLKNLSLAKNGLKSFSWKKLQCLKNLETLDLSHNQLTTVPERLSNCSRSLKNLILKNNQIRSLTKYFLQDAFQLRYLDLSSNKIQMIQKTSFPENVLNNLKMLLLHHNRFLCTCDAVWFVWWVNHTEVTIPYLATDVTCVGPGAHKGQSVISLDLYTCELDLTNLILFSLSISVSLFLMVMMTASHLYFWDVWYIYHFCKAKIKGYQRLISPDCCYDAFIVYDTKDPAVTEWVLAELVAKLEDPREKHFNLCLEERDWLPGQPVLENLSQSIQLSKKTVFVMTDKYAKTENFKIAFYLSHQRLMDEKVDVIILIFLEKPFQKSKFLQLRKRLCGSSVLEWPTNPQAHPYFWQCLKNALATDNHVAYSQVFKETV
- experiment.summary: TLR7 cellular NFκB-luc reporter assay, wild type TLR7
- Type: cell-based
- Design: unit not given here
- assay.context: lowest effective concentration, wild type TLR7
Reported TLR7-wt_LEC values for a set of compounds
observation.type: TLR7-wt_LEC

In [3]: df
Out[3]:
                              line_notation                              assay_target  endpoint_result
0      CCC[C@@H](CCO)Nc1nc(N)ncc1OCc1cccnn1  human TLR7 (wild type sequence) (Homo sapiens, UniProt Q9NYK1)            0.724
1           CCCCNc1nc(N)ncc1OCCCC(=O)OC(C)C  human TLR7 (wild type sequence) (Homo sapiens, UniProt Q9NYK1)            0.654
2   CCCC[C@@H](CO)Nc1nc(N)ncc1OCc1cccc(C)n1  human TLR7 (wild type sequence) (Homo sapiens, UniProt Q9NYK1)            0.124
3                 CCCCNc1nc(N)ncc1OCCOC(C)C  human TLR7 (wild type sequence) (Homo sapiens, UniProt Q9NYK1)            1.850
4  CCCC[C@@H](CCO)Nc1nc(N)ncc1OCc1cc(C)n(C)n1  human TLR7 (wild type sequence) (Homo sapiens, UniProt Q9NYK1)            0.156
